These entries and their values trace back to ChEMBL document CHEMBL1201862.

Hi! I'm sharing some AC50 results obtained with Cytochrome P450 3A4 (Homo sapiens, UniProt P08684).
Sequence (P08684 whole entry): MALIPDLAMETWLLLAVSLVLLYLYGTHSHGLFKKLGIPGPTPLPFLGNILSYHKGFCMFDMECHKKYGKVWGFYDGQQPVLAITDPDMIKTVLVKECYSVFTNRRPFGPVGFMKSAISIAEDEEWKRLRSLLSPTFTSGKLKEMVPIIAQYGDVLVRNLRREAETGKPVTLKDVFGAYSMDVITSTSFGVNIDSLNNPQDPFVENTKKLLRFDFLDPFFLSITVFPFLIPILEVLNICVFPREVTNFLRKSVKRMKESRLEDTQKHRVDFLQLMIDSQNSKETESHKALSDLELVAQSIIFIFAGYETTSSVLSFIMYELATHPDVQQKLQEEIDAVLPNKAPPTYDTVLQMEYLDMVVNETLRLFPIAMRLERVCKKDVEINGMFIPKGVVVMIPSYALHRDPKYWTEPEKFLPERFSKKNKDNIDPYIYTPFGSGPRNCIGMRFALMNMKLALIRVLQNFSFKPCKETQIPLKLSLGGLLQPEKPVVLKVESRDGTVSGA

>  <Compound>
Cc1cnc(CNc2ccnc(-c3ccoc3)n2)cn1

>  <AC50>
25.1 µM (inconclusive)

$$$$
>  <Compound>
O=C1CC(NCCC2=CCCCC2)C(=O)N1c1cccc(Cl)c1Cl (stereo unspecified)

>  <AC50>
15.8 µM (inconclusive)

$$$$
>  <Compound>
Nc1ccc(Nc2ccccc2)cc1

>  <AC50>
20 µM (inconclusive)

$$$$
>  <Compound>
O=C1Nc2cc(Cl)c(Cl)cc2N(O)N1c1ccc(Cl)c(Cl)c1

>  <AC50>
39.8 µM (inconclusive)

$$$$
>  <Compound>
Cc1ccc(Nc2nc(-c3sc(NC(=O)c4cccc(Cl)c4)nc3C)cs2)cc1

>  <AC50>
11.2 µM (inconclusive)

$$$$
>  <Compound>
COc1cc2nncc(SCc3ccc(Cl)c(Cl)c3)c2cc1OC

>  <AC50>
2 µM (inconclusive)

$$$$
>  <Compound>
CCOC(=O)Cn1cc(C(=O)c2ccccc2F)c2ccccc21

>  <AC50>
35.5 µM (inconclusive)

$$$$
>  <Compound>
COc1ccc(S(=O)(=O)N2CCC(C(=O)NCC3CCCO3)CC2)cc1C (stereo unspecified)

>  <AC50>
15.8 µM (inconclusive)

$$$$
>  <Compound>
COC(=O)CCC(=O)NNC(=O)CCCOc1ccc(Cl)cc1Cl

>  <AC50>
15.8 µM (inconclusive)

$$$$
>  <Compound>
Cc1cccc(C)c1NC(=O)C[S+]([O-])CC(=O)Nc1ccc(F)cc1F (stereo unspecified)

>  <AC50>
14.1 µM (inconclusive)

$$$$
>  <Compound>
O=C(Nc1ccccc1)N1CC2(CCN(C(=O)c3ccncc3)CC2)C1

>  <AC50>
25.1 µM (inconclusive)

$$$$
